- assay-system: T1, TNFR1 (Homo sapiens, UniProt P19438)
- T1 chain: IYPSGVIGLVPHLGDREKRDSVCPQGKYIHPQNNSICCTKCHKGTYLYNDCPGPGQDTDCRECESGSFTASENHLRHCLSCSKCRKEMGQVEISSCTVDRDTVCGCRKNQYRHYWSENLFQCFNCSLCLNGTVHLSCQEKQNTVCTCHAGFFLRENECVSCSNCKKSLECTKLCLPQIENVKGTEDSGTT
- test: yeast display SC50
# reported apparent Kd (screen); entries follow

>  <binder>
S1C (designed binder) CMEEEVEKAAKEYEKKKKEAIEKHLEKLKAKDKEAAERFLKELEEAAKEYAKDEAKTMSEEEAKRRAKKYKEKVLLSELSEEEQKEIKEAEEKLVRTILKYVEEAAK

>  <units-symbol>
nM

>  <apparent Kd (screen)>
15.2

$$$$
>  <binder>
L28N (designed binder) SMEEEVEKAAKEYEKKKKEAIEKHLEKNKAKDKEAAERFLKELEEAAKEYAKDEAKTMSEEEAKRRAKKYKEKVLLSELSEEEQKEIKEAEEKLVRTILKYVEEAAK

>  <units-symbol>
nM

>  <apparent Kd (screen)>
1.16

$$$$
>  <binder>
R38T (designed binder) SMEEEVEKAAKEYEKKKKEAIEKHLEKLKAKDKEAAETFLKELEEAAKEYAKDEAKTMSEEEAKRRAKKYKEKVLLSELSEEEQKEIKEAEEKLVRTILKYVEEAAK

>  <units-symbol>
nM

>  <apparent Kd (screen)>
2.05

$$$$
>  <binder>
V6P (designed binder) SMEEEPEKAAKEYEKKKKEAIEKHLEKLKAKDKEAAERFLKELEEAAKEYAKDEAKTMSEEEAKRRAKKYKEKVLLSELSEEEQKEIKEAEEKLVRTILKYVEEAAK

>  <units-symbol>
nM

>  <apparent Kd (screen)>
0.446

$$$$
>  <binder>
K73L (designed binder) SMEEEVEKAAKEYEKKKKEAIEKHLEKLKAKDKEAAERFLKELEEAAKEYAKDEAKTMSEEEAKRRAKKYKELVLLSELSEEEQKEIKEAEEKLVRTILKYVEEAAK

>  <units-symbol>
nM

>  <apparent Kd (screen)>
7.07

$$$$
>  <binder>
L79D (designed binder) SMEEEVEKAAKEYEKKKKEAIEKHLEKLKAKDKEAAERFLKELEEAAKEYAKDEAKTMSEEEAKRRAKKYKEKVLLSEDSEEEQKEIKEAEEKLVRTILKYVEEAAK

>  <units-symbol>
nM

>  <apparent Kd (screen)>
16.7

$$$$
>  <binder>
E78G (designed binder) SMEEEVEKAAKEYEKKKKEAIEKHLEKLKAKDKEAAERFLKELEEAAKEYAKDEAKTMSEEEAKRRAKKYKEKVLLSGLSEEEQKEIKEAEEKLVRTILKYVEEAAK

>  <units-symbol>
nM

>  <apparent Kd (screen)>
3

$$$$
>  <binder>
K56L (designed binder) SMEEEVEKAAKEYEKKKKEAIEKHLEKLKAKDKEAAERFLKELEEAAKEYAKDEALTMSEEEAKRRAKKYKEKVLLSELSEEEQKEIKEAEEKLVRTILKYVEEAAK

>  <units-symbol>
nM

>  <apparent Kd (screen)>
1.05

$$$$
